Can you tell me inhibition of ligand binding for the items I'm about to list?
biological target: Estrogen receptor (Homo sapiens); assay: ERalpha ligand binders by competition, primary screen, cell-based, Cos7 ERalpha-GFP, flow cytometry (AID 1211); details: fluorescent ligand competition, at 10 µM, active compounds read high;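 also: 0% = DMSO vehicle wells and 100% = no E2-Alexa633 signal left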
# number only, unit % dropped from output

Fill in the blank: the reported inhibition of ligand binding of COc1cc(C2Nc3c(F)cccc3C3C=CCC32)cc(Br)c1OC (stereo unspecified) is ____. 10

Need inhibition of ligand binding, item CC(C)CN(C(=O)COC(=O)c1cc2c(s1)CCC2)C1CCS(=O)(=O)C1 (stereo unspecified) 47

For the compound shown here, "O=C1c2ccccc2C(=O)N1/N=C/c1ccc(O)c(O)c1" , give the reported inhibition of ligand binding. 32

So what does the record say about inhibition of ligand binding for CC(C)COc1ccc2c(c1)c1c3n2CCNC3CCC1 (stereo unspecified) ? 22

So what's the measured inhibition of ligand binding for this one? "O=C(Cc1ccc(S(=O)(=O)N2CCOCC2)s1)Nc1nc2c(s1)CCCC2" 46

Using the record for CN1C(=O)CC(C(=O)O)SC1=Nc1cc(Cl)c(O)c(Cl)c1 (stereo unspecified) , report its inhibition of ligand binding. 17

Param item = "COc1ccc(C)cc1-n1nnnc1SCC(=O)NC(=O)NCc1ccco1" ; retrieve measured inhibition of ligand binding. 15

Need inhibition of ligand binding of "Cc1ccnc(NS(=O)(=O)c2ccc(NC(=O)c3cc(-c4ccc(Br)cc4)nc4ccccc34)cc2)n1" , thanks. 49

Entry under review: "c1ccc(-c2nnc3sc(Cc4cccs4)nn23)cc1" . Reported inhibition of ligand binding? 28

Would you mind telling me what inhibition of ligand binding value was observed for "C=CCSC1=N/C(=C\C=C\c2ccco2)C(=O)S1" ? 0

Data request, read-out inhibition of ligand binding, for "CCN(CC)c1ccc(-c2nn3c(-c4ccccc4OC)nnc3s2)cc1" 40
